Test: qHTS for induction of synthetic lethality in tumor cells producing 2HG: qHTS for the HT-1080-NT fibrosarcoma cell line;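 also: NT is the 2HG producing partner of a matched IDH1 knockdown line; nearly all actives have a fitted effect of over 55% in size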
Conditions: HT-1080-NT fibrosarcoma viability, CellTiter-Glo ATP luminescence, 48 h; series mostly up to 46.1 µM
The whole screen tested about 360,000 compounds, of which about 6,000 (1.7%) were called active. Inconclusive results (about 8%) are left out. Calls follow the shape of the dose curve; as a rule, active = well fitted cell-killing curve with a large enough effect; inconclusive = small, poorly fitted or top-dose-only effect, or effect the other way; inactive = flat fitted curve, though single readings scatter. For the sample, actives were picked, then their nearest neighbours and some compounds at random.
Bench note: report the call from T for active, F for inactive

So what was the verdict on CCc1nnc(NC(=O)C2CCCN2S(=O)(=O)c2ccccc2)s1 (stereo not drawn) in this test?
F

So what was the verdict on N=c1n(Cc2ccc(Cl)cc2)c2ccccc2n1CC(O)c1ccco1 (stereo not drawn) in this test?
T

So what was the verdict on "Cc1ccc(S(=O)(=O)N2CCCCC2)cc1NC(=O)CCNC(=O)c1ccccc1Cl" in this test?
F

So what was the verdict on "CCc1nc2c(OCc3ccc(F)c(F)c3)cccn2c1N(C)C(=O)c1ccco1" in this test?
F

So what was the verdict on "Cc1nc2c(OCc3ccc(Cl)cc3)cccn2c1N(C)Cc1cccs1" in this test?
T

So what was the verdict on "O=C(Nc1ccc(S(=O)(=O)Nc2ccccn2)cc1)c1ccccc1" in this test?
F

So what was the verdict on CCOC(=O)C1CCCN(C(=O)c2cc(-c3cccs3)oc2C)CC1 (stereo not drawn) in this test?
F

So what was the verdict on "Cc1nc2c(OCc3ccc(Cl)cc3Cl)cccn2c1N(C)CC1CC1" in this test?
T

So what was the verdict on "CNS(=O)(=O)c1ccc2c(c1)[nH]c(=S)n2C" in this test?
F

So what was the verdict on COc1ccc(-c2cc3c(c4c2ccn4C)C2CCC3C2)cn1 (stereo not drawn) in this test?
F

So what was the verdict on Cn1c(=N)n(CC(O)c2ccccc2)c2ccccc21 (stereo not drawn) in this test?
F

So what was the verdict on "O=C(Nc1ccccc1)c1nnsc1S(=O)(=O)c1ccc(Cl)cc1" in this test?
T

So what was the verdict on "CCc1nc2c(OCc3ccc(Cl)cc3Cl)cccn2c1N(C)C(=O)C(C)C" in this test?
T

So what was the verdict on "CCc1nc2c(OCc3ccccc3)cccn2c1N(C)C(=O)c1ccco1" in this test?
F

So what was the verdict on "Cn1nc(N)c2ncc(C(Cl)(Cl)Cl)nc21" in this test?
F

So what was the verdict on "CCCCN(C=O)c1c(CC)nc2c(OCc3ccccc3C(=O)OC)cccn12" in this test?
F

So what was the verdict on "CCc1ccccc1NC(=O)CN1CCN(C(=O)c2cc(C3CC3)nn2-c2ccccc2)CC1" in this test?
F

So what was the verdict on "Cc1nnsc1S(=O)(=O)Cc1ccccc1Cl" in this test?
F

So what was the verdict on "CCc1nc2ccc(C(=O)N(C)Cc3ccco3)cn2c1N(C)C(=O)Cc1ccccc1" in this test?
F

So what was the verdict on "Cc1nc2ccccc2nc(C)c1=NOCc1ccc(Cl)cc1Cl" in this test?
F

So what was the verdict on "CCc1nc2c(OCc3ccc(C(=O)OC)cc3)cccn2c1N(C)C(=O)C(C)C" in this test?
F

So what was the verdict on O=C(Nc1ccc2c(c1)OCCO2)C(C1CC1)N1CCC(Cc2ccccc2)CC1 (stereo not drawn) in this test?
F

So what was the verdict on Cn1c(=N)n(CC(O)c2cccs2)c2ccccc21 (stereo not drawn) in this test?
F
